So I've got a bunch of molecules here, and I need their IC50 values.
- tested-system: HCV NS3/4A protease complex (BMS strain, genotype 1a) (Hepatitis C virus genotype 1a, UniProt P27958, C1454S)
- Construct: DNA encoding the recombinant HCV NS3/4A protease complex (amino acids 1027 to 1711) for these strains; inferred from the pET21b vector and Ni-NTA purification; made in house; host or cells: Escherichia coli BL21 (DE3), pET21b
- Sequence (P27958 1658-1714, looked up, stated change not applied): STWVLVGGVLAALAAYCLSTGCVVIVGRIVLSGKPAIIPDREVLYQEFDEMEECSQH
- Sequence (P27958 1027-1657, looked up, stated change not applied): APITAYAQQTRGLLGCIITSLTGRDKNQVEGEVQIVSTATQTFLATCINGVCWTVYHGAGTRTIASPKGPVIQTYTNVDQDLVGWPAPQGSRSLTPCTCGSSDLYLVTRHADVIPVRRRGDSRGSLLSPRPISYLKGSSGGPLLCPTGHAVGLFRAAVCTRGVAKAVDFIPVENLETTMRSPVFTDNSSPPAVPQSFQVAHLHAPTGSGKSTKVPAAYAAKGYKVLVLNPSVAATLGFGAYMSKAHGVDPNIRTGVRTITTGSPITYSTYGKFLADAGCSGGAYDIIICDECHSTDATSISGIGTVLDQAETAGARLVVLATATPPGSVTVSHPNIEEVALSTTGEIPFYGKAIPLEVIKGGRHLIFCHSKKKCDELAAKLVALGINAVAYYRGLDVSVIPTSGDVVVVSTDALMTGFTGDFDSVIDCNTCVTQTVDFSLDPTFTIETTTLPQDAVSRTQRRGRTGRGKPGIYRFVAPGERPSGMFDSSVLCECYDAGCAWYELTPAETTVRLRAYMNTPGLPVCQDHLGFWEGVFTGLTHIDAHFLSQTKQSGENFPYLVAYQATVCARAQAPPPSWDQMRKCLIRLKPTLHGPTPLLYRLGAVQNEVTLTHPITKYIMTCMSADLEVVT
- method-notes: Recombinant HCV NS3/4A protease complex FRET peptide assay, BMS strain
- Format: biochemical
- experimental-setup: IC50 range, NS3/4A BMS Strain

{"columns": ["mol", "IC50"],
 "data": [
  ["C=C[C@@H]1C[C@]1(NC(=O)[C@@H]1C[C@@H](Oc2cc(-c3ccccc3)nc3cc(OC)ccc23)CN1C(=O)[C@@H](NC(=O)OC(C)(C)C)C(C)(C)C)C(=O)NS(=O)(=O)C1(CC#CCC)CC1", "< 50 nM"],
  ["C=C[C@@H]1C[C@]1(NC(=O)[C@@H]1C[C@@H](Oc2ccnc3cc(Cl)ccc23)CN1C(=O)[C@@H](NC(=O)OC1CCCC1)C(C)(C)C)C(=O)NS(=O)(=O)C1(C)CC1", "< 50 nM"]
]}

Query string: Give the measured IC50 of `C=C[C@@H]1C[C@]1(NC(=O)[C@@H]1C[C@@H](Oc2cc(C3CC3)nc3cc(OC)ccc23)CN1C(=O)[C@@H](NC(=O)OC(C)(C)C)C(C)(C)C)C(=O)NS(=O)(=O)C1(Cc2ccccc2)CC1` .
Result string: < 50 nM

###

- tested-system: HCV NS3/4A protease complex (BMS strain, genotype 1a) (Hepatitis C virus genotype 1a, UniProt P27958, C1454S)
- Construct: DNA encoding the recombinant HCV NS3/4A protease complex (amino acids 1027 to 1711) for these strains; inferred from the pET21b vector and Ni-NTA purification; made in house; host or cells: Escherichia coli BL21 (DE3), pET21b
- method-notes: Recombinant HCV NS3/4A protease complex FRET peptide assay, BMS strain
- Type: biochemical
- experimental-setup: IC50 range, NS3/4A BMS Strain
So I've got a bunch of compounds here, and I need their IC50 values.

{"columns": ["compound", "IC50"],
 "data": [
  ["C=CC1C[C@]1(NC(=O)[C@@H]1C[C@@H](Oc2cc(-c3ccccc3)nc3cc(OC)ccc23)CN1C(=O)[C@@H](NC(=O)OC(C)(C)C)C(C)(C)C)C(=O)NS(=O)(=O)C1(COC)CC1 (some centres unmarked)", "< 50 nM"],
  ["C=C[C@@H]1C[C@]1(NC(=O)[C@@H]1C[C@@H](Oc2cc(-c3ccccc3)nc3cc(OC)ccc23)CN1C(=O)[C@@H](NC(=O)OC1CCOCC1)C(C)(C)C)C(=O)NS(=O)(=O)C1(Cc2ccccc2)CC1", "< 50 nM"],
  ["C=C[C@@H]1C[C@]1(NC(=O)[C@@H]1C[C@@H](Oc2cc(-c3ccccc3)nc3cc(OC)ccc23)CN1C(=O)[C@@H](NC(=O)CC1CC1)C(C)(C)C)C(=O)NS(=O)(=O)C1(Cc2ccccc2)CC1", "< 50 nM"]
]}

# batch size: 2; output IC50 per entry
1. C=CC1C[C@]1(NC(=O)[C@@H]1C[C@@H](Oc2cc(-c3ccccc3)nc3cc(OC)ccc23)CN1C(=O)[C@@H](NC(=O)OC(C)(C)C)C(C)(C)C)C(=O)NS(=O)(=O)C1(CC2CC2)CC1 (some centres unmarked)
2. C=C[C@@H]1C[C@]1(NC(=O)[C@@H]1C[C@@H](Oc2cc(-c3ccccc3)nc3cc(OC)ccc23)CN1C(=O)[C@@H](NC(=O)OC(C)(C)C)C(C)(C)C)C(=O)NS(=O)(=O)C1(Cc2cc(C)on2)CC1

Result string:
1: < 50 nM; 2: < 50 nM
